Just for reference, patent US5216005A is where these values come from.

assay: viability of peripheral blood lymphocytes with or without PHA, trypan blue exclusion; format: cell-based, human; settings: human, peripheral blood lymphocytes, second individual; (-) PHA; 9 μM
measured-quantity: viability at 9 µM (%)
A number alone suffices; assume %.

Sample COC(=O)CCC(C(C)=O)C(C)=O [Methyl 4-Acetyl-5-Oxohexanoate, methyl 4-acetyl-5-oxohexanoate] ; viability at 9 µM observed: 100

Input COC(=O)CCC(=O)CC(C)=O [Succinylacetone Methyl Ester, methyl 4-6-dioxoheptanoate] . Output viability at 9 µM: 100

====

assay: viability of peripheral blood lymphocytes with or without PHA, trypan blue exclusion; assay type: cell-based, human; settings: human, peripheral blood lymphocytes, second individual; (-) PHA; 27 μM
Please respond with reported viability at 27 µM for every item in the list.
Numeric only. Scale: %

Consider COC(=O)CCC(=O)CC(C)=O [Succinylacetone Methyl Ester, methyl 4-6-dioxoheptanoate] . Its measured viability at 27 µM is 100

COC(=O)CCC(C(C)=O)C(C)=O [Methyl 4-Acetyl-5-Oxohexanoate, methyl 4-acetyl-5-oxohexanoate] has a reported viability at 27 µM of 100
